# tested_system: T1, IL10RA (UniProt Q13651 22-578, limits assumed)
# T1 sequence (looked up): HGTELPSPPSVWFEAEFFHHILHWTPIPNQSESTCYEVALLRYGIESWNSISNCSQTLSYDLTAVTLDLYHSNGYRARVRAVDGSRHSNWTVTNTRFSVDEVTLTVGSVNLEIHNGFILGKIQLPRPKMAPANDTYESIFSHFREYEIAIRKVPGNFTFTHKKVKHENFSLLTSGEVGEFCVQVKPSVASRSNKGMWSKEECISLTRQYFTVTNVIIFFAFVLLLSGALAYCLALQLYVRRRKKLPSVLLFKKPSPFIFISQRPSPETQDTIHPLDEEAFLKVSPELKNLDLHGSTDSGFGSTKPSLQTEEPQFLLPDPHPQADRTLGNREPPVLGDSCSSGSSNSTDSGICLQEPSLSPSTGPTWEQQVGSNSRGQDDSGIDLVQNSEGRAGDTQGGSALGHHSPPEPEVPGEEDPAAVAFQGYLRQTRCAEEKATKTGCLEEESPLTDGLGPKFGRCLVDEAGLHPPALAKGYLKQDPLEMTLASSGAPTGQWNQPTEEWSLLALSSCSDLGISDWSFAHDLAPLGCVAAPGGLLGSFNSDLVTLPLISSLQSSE
# assay_comment: cell-based or functional assay
recorded_endpoint: EC-50, HEK-Blue IL-10 reporter cells

• ORK10-003-HiBit (ligand) MTQSENSCTHFPGNLPNMLRDLRDAFSRVKTFFQMKDQLDNLLLKESLLEDFKGYLGCQALSEMIQFYLEEVMPQAENQDPDIKAHVNSLGENLKTLRLRLRRCHRFLPCENKSKAVEQVKNAFNKLQEKGIYKAMSEFDIFINYIEAYLYKTITPEFANMLRDLRDAFSRVKTFFQMKDQLDNLLLKESLLEDFKGYLGCQALSEMIQFYLEEVMPQAENQDPDIKAHVNSLGENLKTLRLRLRRCHRFLPCENKSKAVEQVKNAFNKLQEKGIYKAMSEFDIFINYIEAYMTMGGVSGWRLFKKIS = 9.44e-11
